Reported pIC50 values follow for various compounds
target: cIAP1 BIR3 (Homo sapiens, UniProt Q13490); construct: covering amino acids 258 to 363; GST; His; assay: Binding experiment of cIAP1 BIR3 (fluorescence polarization); settings: 20 nM cIAP1 BIR3, 5 nM probe ARPFAQ-K(5-FAM)-NH2, 60 min
Sequence (Q13490 258-363): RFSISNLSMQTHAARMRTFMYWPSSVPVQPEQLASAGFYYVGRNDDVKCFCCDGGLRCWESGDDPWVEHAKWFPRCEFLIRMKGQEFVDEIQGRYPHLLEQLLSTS
pIC50: −log10 of the molar value.

COMPOUND	SYSTEM	pIC50
CN[C@@H](C)C(=O)N[C@H](C(=O)N1CCC[C@H]1Cn1nc(C(C)=O)c2cc(Cl)ccc21)C1CCCCC1	cIAP1 BIR3 (Homo sapiens, UniProt Q13490)	8.21
CN[C@@H](C)C(=O)N[C@H](C(=O)N1CCC[C@H]1Cn1cc(-c2ccnn2C)c2cc(F)ccc21)C1CCCCC1	cIAP1 BIR3 (Homo sapiens, UniProt Q13490)	8.96
CN[C@@H](C)C(=O)N[C@H](C(=O)N1CCC[C@H]1Cn1cc(N2CCOC2=O)c2cc(Cl)ccc21)C1CCCCC1	cIAP1 BIR3 (Homo sapiens, UniProt Q13490)	8.36
CN[C@@H](C)C(=O)N[C@H](C(=O)N1CCC[C@H]1Cn1cc(C(C)=O)c2cc(C(F)(F)F)ccc21)C1CCCCC1	cIAP1 BIR3 (Homo sapiens, UniProt Q13490)	9.00
CN[C@@H](C)C(=O)N[C@H](C(=O)N1CCC[C@H]1Cn1cc(C(C)=O)c2cc(Cl)c(F)cc21)C1CCCCC1	cIAP1 BIR3 (Homo sapiens, UniProt Q13490)	8.24
CN[C@@H](C)C(=O)N[C@H](C(=O)N1CCC[C@H]1Cn1cc(C(C)=O)c2cc(Cl)c(Cl)cc21)C1CCCCC1	cIAP1 BIR3 (Homo sapiens, UniProt Q13490)	8.25
CN[C@@H](C)C(=O)N[C@H](C(=O)N1CCC[C@H]1Cn1cc(C(=O)N(C)C)c2cc(Cl)ccc21)C1CCCCC1	cIAP1 BIR3 (Homo sapiens, UniProt Q13490)	8.34
CN[C@@H](C)C(=O)N[C@H](C(=O)N1CCC[C@H]1Cn1cc(C#N)c2cc(F)ccc21)C1CCCCC1	cIAP1 BIR3 (Homo sapiens, UniProt Q13490)	8.72
CN[C@@H](C)C(=O)N[C@H](C(=O)N1CCC[C@H]1Cn1cc(C(C)=O)c2cc(OC(F)(F)F)ccc21)C1CCCCC1	cIAP1 BIR3 (Homo sapiens, UniProt Q13490)	8.28
CN[C@@H](C)C(=O)N[C@H](C(=O)N1CCC[C@H]1Cn1nc(C#N)c2cc(Cl)ccc21)C1CCCCC1	cIAP1 BIR3 (Homo sapiens, UniProt Q13490)	8.34
CN[C@@H](C)C(=O)N[C@H](C(=O)N1CCC[C@H]1Cn1nc(C(C)=O)c2cc(F)ccc21)C1CCCCC1	cIAP1 BIR3 (Homo sapiens, UniProt Q13490)	8.40
CN[C@@H](C)C(=O)N[C@H](C(=O)N1CCC[C@H]1Cn1cc(C(C)=O)c2cc(Br)ccc21)C1CCCCC1	cIAP1 BIR3 (Homo sapiens, UniProt Q13490)	8.31
CN[C@@H](C)C(=O)N[C@H](C(=O)N1CCC[C@H]1Cn1cc(S(C)(=O)=O)c2cc(Cl)ccc21)C1CCCCC1	cIAP1 BIR3 (Homo sapiens, UniProt Q13490)	8.38
CN[C@@H](C)C(=O)N[C@H](C(=O)N1CCC[C@H]1Cn1cc(N2CCCC2=O)c2cc(Cl)ccc21)C1CCCCC1	cIAP1 BIR3 (Homo sapiens, UniProt Q13490)	8.28

----------
biological target: cIAP1 BIR3 (Homo sapiens, UniProt Q13490); construct: covering amino acids 258 to 363; GST; His; experiment: Binding experiment of cIAP1 BIR3 (fluorescence polarization); conditions: 20 nM cIAP1 BIR3, 5 nM probe ARPFAQ-K(5-FAM)-NH2, 60 min
Listing of entries alongside the reported IC50.

COMPOUND	IC50
CN[C@@H](C)C(=O)N[C@H](C(=O)N1CCC[C@H]1Cn1cc(C(C)=O)c2ccc(Cl)cc21)C1CCCCC1	2.6 nM
CN[C@@H](C)C(=O)N[C@H](C(=O)N1CCC[C@H]1Cn1cc(S(C)(=O)=O)c2cc(F)ccc21)C1CCCCC1	1.1 nM
CN[C@@H](C)C(=O)N[C@H](C(=O)N1CCC[C@H]1Cn1cc(-c2ccnn2C)c2cc(Cl)ccc21)C1CCCCC1	4.4 nM
CN[C@@H](C)C(=O)N[C@H](C(=O)N1CCC[C@H]1Cn1cc(C(C)=O)c2cc(F)ccc21)C1CCCCC1	3.7 nM
CN[C@@H](C)C(=O)N[C@H](C(=O)N1CCC[C@H]1Cn1cc(C(N)=O)c2cc(F)ccc21)C1CCCCC1	3 nM
CN[C@@H](C)C(=O)N[C@H](C(=O)N1CCC[C@H]1Cn1cc(N2CCN(C)C2=O)c2cc(Cl)ccc21)C1CCCCC1	6.1 nM
CN[C@@H](C)C(=O)N[C@H](C(=O)N1CCC[C@H]1Cn1cc(C(C)=O)c2cc(Cl)cnc21)C1CCCCC1	8.4 nM

----------
target: cIAP1 BIR3 (Homo sapiens, UniProt Q13490); construct: covering amino acids 258 to 363; GST; His; assay: Binding experiment of cIAP1 BIR3 (fluorescence polarization); conditions: 20 nM cIAP1 BIR3, 5 nM probe ARPFAQ-K(5-FAM)-NH2, 60 min
IC50 under 5 nM gets 1.0, anything at or over 5 nM gets 0.0.

COMPOUND	QUALITATIVE LABEL
CN[C@@H](C)C(=O)N[C@H](C(=O)N1CCC[C@H]1Cn1cc(C(=O)C(C)C)c2cc(Cl)ccc21)C1CCCCC1	1.0
CN[C@@H](C)C(=O)N[C@H](C(=O)N1CCC[C@H]1Cn1cc(C(C)=O)c2cccc(Cl)c21)C1CCCCC1	0.0
CN[C@@H](C)C(=O)N[C@H](C(=O)N1CCC[C@H]1Cn1cc(-c2ccccc2C)c2cc(F)ccc21)C1CCCCC1	0.0

----------
target: cIAP1 BIR3 (Homo sapiens, UniProt Q13490); construct: covering amino acids 258 to 363; GST; His; test: Binding experiment of cIAP1 BIR3 (fluorescence polarization); conditions: 20 nM cIAP1 BIR3, 5 nM probe ARPFAQ-K(5-FAM)-NH2, 60 min
The compounds listed here are annotated with their IC50.

COMPOUND	IC50 / nM
CN[C@@H](C)C(=O)N[C@H](C(=O)N1CCC[C@H]1Cn1cc(C(C)=O)c2c(F)c(Cl)ccc21)C1CCCCC1 [Example 10]	4.5
CN[C@@H](C)C(=O)N[C@H](C(=O)N1C[C@@H](Oc2ccccc2)C[C@H]1Cn1cc(C(C)=O)c2cc(F)ccc21)C1CCCCC1 [Example 31]	3.7
CN[C@@H](C)C(=O)N[C@H](C(=O)N1CCC[C@H]1Cn1cc(C(C)=O)c2c(Cl)cccc21)C1CCCCC1 [Example 4]	2.6

----------
target: XIAP BIR3 (Homo sapiens, UniProt P98170); construct: covering amino acids 255 to 356; GST; His; assay: Binding experiment of XIAP BIR3 (fluorescence polarization); details: 30 nM XIAP BIR3, 5 nM probe ARPFAQ-K(5-FAM)-NH2, 60 min
Sequence (P98170 255-356): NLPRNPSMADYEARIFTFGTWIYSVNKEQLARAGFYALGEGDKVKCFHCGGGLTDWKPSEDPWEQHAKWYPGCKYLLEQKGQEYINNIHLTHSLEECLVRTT

COMPOUND	IC50 [µM]
CN[C@@H](C)C(=O)N[C@H](C(=O)N1CCC[C@H]1Cn1cc(C(C)=O)c2cc(C(F)(F)F)ccc21)C1CCCCC1 [Example 3]	0.0181
CN[C@@H](C)C(=O)N[C@H](C(=O)N1CCC[C@H]1Cn1cc(-c2ccnn2C)c2cc(Cl)ccc21)C1CCCCC1 [Example 27]	0.0464
CN[C@@H](C)C(=O)N[C@H](C(=O)N1CCC[C@H]1Cn1cc(C(C)=O)c2cc(Cl)c(Cl)cc21)C1CCCCC1 [Example 8]	0.0403
CN[C@@H](C)C(=O)N[C@H](C(=O)N1CCC[C@H]1Cn1cc(C(C)=O)c2cc(F)ccc21)C1CCCCC1 [Example 1]	0.0747
CN[C@@H](C)C(=O)N[C@H](C(=O)N1CCC[C@H]1Cn1cc(C(C)=O)c2cc(Cl)c(F)cc21)C1CCCCC1 [Example 9]	0.02
CN[C@@H](C)C(=O)N[C@H](C(=O)N1CCC[C@H]1Cn1cc(S(C)(=O)=O)c2cc(F)ccc21)C1CCCCC1 [Example 20]	0.0539
CN[C@@H](C)C(=O)N[C@H](C(=O)N1CCC[C@H]1Cn1cc(C(C)=O)c2ccc(Cl)cc21)C1CCCCC1 [Example 5]	0.0959

----------
Below, each entry is listed alongside its reported pIC50.
target: XIAP BIR3 (Homo sapiens, UniProt P98170); construct: covering amino acids 255 to 356; GST; His; assay: Binding experiment of XIAP BIR3 (fluorescence polarization); settings: 30 nM XIAP BIR3, 5 nM probe ARPFAQ-K(5-FAM)-NH2, 60 min
pIC50: −log10 of the molar value.

COMPOUND	pIC50
CN[C@@H](C)C(=O)N[C@H](C(=O)N1CCC[C@H]1Cn1cc(N2CCOC2=O)c2cc(Cl)ccc21)C1CCCCC1 [Example 30]	7.67
CN[C@@H](C)C(=O)N[C@H](C(=O)N1CCC[C@H]1Cn1cc(C(C)=O)c2cccc(Cl)c21)C1CCCCC1 [Example 6]	8.03
CN[C@@H](C)C(=O)N[C@H](C(=O)N1CCC[C@H]1Cn1c(C)c(C(C)=O)c2cc(Cl)ccc21)C1CCCCC1 [Example 13]	7.51
CN[C@@H](C)C(=O)N[C@H](C(=O)N1CCC[C@H]1Cn1cc(-c2ccccc2C)c2cc(F)ccc21)C1CCCCC1 [Example 25]	6.68
